Origin of measurements: patent US20240309103A1

Tested target: T1, hNPR1-mFc:hANP or hNPR1-hFc:hANP complex (human, UniProt P01160 124-151)
T1 construct: also called human NPR1 complexed to ANP
Assay notes: SPR, mAb captured, 37C
If the reported 100 nM Ag Bound (RU) equals or exceeds 100 RU, assign true. If not, assign false.

// below: answered binders
Inquiry: Determine whether this binder has 100 nM Ag Bound (RU) no lower than 100 RU: mAb22805 (antibody, human IgG4, V domains shown) VH: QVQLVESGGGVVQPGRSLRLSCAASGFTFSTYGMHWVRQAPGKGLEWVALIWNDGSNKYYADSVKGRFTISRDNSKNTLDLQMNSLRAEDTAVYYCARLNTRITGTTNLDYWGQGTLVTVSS VL: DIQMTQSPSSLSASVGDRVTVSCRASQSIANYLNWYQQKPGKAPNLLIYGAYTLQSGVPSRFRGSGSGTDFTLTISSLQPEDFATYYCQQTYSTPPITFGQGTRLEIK
Reply text: true

Inquiry: Determine whether this binder has 100 nM Ag Bound (RU) no lower than 100 RU: mAb25491 (antibody, human IgG4, V domains shown) VH: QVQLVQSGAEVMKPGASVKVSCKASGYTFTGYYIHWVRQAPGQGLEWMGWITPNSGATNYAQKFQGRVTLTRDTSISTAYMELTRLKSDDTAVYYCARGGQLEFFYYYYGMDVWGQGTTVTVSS VL: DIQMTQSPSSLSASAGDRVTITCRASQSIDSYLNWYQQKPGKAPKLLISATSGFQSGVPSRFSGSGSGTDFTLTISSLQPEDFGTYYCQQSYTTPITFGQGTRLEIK
Reply text: false

Inquiry: Determine whether this binder has 100 nM Ag Bound (RU) no lower than 100 RU: mAb22033 (antibody, human IgG4, V domains shown) VH: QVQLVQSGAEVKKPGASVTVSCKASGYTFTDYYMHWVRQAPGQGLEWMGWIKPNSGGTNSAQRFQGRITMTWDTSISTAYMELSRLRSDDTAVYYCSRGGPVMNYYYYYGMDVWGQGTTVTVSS VL: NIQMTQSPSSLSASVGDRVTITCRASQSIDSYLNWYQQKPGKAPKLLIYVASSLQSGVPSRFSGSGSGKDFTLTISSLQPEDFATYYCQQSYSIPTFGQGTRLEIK
Reply text: true

Inquiry: Determine whether this binder has 100 nM Ag Bound (RU) no lower than 100 RU: mAb22035 (antibody, human IgG4, V domains shown) VH: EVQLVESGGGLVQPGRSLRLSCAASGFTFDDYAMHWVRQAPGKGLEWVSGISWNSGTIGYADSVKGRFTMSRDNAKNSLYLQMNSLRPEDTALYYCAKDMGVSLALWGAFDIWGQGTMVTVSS VL: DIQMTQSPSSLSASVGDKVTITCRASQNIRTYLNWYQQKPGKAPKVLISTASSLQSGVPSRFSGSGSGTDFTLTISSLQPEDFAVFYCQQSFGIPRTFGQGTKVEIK
Reply text: true

For the next question, use this binder.
Inquiry: Determine whether this binder has 100 nM Ag Bound (RU) no lower than 100 RU: mAb25479 (antibody, human IgG4, V domains shown) VH: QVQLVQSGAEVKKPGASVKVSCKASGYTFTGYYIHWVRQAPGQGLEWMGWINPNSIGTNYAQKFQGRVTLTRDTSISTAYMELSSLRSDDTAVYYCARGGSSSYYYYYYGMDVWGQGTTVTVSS VL: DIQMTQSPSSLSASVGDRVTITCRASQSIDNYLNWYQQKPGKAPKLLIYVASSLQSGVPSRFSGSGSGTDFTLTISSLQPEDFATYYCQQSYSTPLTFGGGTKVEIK
Reply text: false
